Assay: Half life in Wistar rat plasma at 0.4 mg/kg, iv by LC-MS/MS analysis
Type: ADME, organism-based
readout-kind: half-life (h)
Use h as the unit, but write only the number.

Data request: Requested field: half-life. Item: `c1ccc2oc(-c3csc(C4CCN(Cc5nc6cnccc6[nH]5)CC4)n3)cc2c1`
Data returned: 3.1

Data request: // next record `c1ccc2oc(-c3csc(C4CCN(Cc5nc6ncccc6[nH]5)CC4)n3)cc2c1`
Data returned: 6.2

---

Assay: Oral bioavailability in Wistar rat plasma at 0.8 mg/kg by LC-MS/MS analysis
Assay type: ADME, organism-based
readout-kind: bioavailability (%)
Use % as the unit, but write only the number.

Data request: Requested field: bioavailability. Item: `c1ccc2oc(-c3csc(C4CCN(Cc5nc6ncccc6[nH]5)CC4)n3)cc2c1`
Data returned: 76

Data request: // next record `c1ccc2oc(-c3csc(C4CCN(Cc5nc6cnccc6[nH]5)CC4)n3)cc2c1`
Data returned: 80

Source listed as ChEMBL document CHEMBL5046307.
